Values from patent US12448395B2

Target Desc: human TLR9 (Homo sapiens, UniProt Q9NR96)
Sequence (Q9NR96 26-1032): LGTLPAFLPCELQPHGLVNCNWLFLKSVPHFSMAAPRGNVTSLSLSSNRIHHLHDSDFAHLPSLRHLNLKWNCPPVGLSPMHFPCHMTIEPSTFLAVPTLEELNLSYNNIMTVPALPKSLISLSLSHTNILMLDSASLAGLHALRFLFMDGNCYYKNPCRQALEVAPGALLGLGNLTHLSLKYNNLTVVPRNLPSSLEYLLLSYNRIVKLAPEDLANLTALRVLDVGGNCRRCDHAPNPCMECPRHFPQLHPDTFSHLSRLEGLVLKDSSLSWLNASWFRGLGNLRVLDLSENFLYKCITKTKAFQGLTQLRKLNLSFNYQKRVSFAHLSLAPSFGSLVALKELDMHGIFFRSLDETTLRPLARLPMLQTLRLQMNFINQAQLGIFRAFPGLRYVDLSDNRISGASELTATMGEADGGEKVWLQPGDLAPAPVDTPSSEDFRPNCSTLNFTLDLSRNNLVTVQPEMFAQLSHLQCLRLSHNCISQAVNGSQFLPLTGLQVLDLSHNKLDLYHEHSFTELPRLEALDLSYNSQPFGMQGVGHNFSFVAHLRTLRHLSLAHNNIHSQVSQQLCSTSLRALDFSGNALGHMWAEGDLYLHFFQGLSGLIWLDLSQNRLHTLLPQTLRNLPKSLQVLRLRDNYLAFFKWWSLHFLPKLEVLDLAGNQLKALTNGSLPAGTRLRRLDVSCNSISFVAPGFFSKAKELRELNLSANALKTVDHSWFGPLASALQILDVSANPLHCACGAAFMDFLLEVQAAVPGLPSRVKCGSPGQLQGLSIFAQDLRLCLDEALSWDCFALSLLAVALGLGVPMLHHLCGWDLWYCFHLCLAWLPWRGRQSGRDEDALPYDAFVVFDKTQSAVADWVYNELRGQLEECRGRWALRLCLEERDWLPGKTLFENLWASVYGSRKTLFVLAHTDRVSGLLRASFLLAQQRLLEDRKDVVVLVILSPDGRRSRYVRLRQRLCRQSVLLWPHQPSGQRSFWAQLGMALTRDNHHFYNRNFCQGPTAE
Run Description: TLR9 inhibition reporter assay (HEK-Blue SEAP, ODN2006 stimulation)
Experimental Parameters: HEK-Blue cells overexpressing human TLR9, ODN2006 5 nM
pIC50: −log10 of the molar value.
Quantity Name: pIC50

In [3]: df
Out[3]:
                                   compound  quantity_name  experimental_value
0  Cc1c(-c2[nH]c3sc(N4CCN(C5CCC5)C[C@@H]4C)nc3c2C(C)C)cn2ncnc2c1C [Example 349]          pIC50              < 4.30
1  Cc1cc(-c2[nH]c3sc(C(=O)N4CCOCC4)nc3c2C(C)C)cn2ncnc12 [Example 398]          pIC50              < 4.30
2  Cc1c(-c2[nH]c3sc(CN4CCNC(=O)C4)nc3c2C(C)C)cn2ncnc2c1C [Example 406]          pIC50              < 4.30
3  Cc1c(-c2[nH]c3sc(N4CCN(CC(=O)N(C)C)C[C@@H]4C)nc3c2C(C)C)cn2ncnc2c1C [Example 343]          pIC50              < 4.30
4  Cc1c(-c2[nH]c3sc(C4CCN(C5COC5)CC4)nc3c2C(C)C)cn(C)c(=O)c1C [Example 60]          pIC50              < 4.30
5  Cc1cc(-c2[nH]c3sc(N4CCN(CC(C)(C)O)C[C@H]4C)nc3c2C(C)C)cn2ncnc12 [Example 359]          pIC50              < 4.30
6  Cc1c(-c2[nH]c3sc(N4CCN(CC(N)=O)CC4)nc3c2C(C)C)cn2ncnc2c1C [Example 285]          pIC50              < 4.30
7  Cc1c(-c2[nH]c3sc(C(=O)NCCCN4CCCC4=O)nc3c2C(C)C)cn2ncnc2c1C [Example 371]          pIC50              < 4.30

Data point: Cc1cc(-c2[nH]c3sc(C(=O)NC4COC4)nc3c2C(C)C)cn2ncnc12 [Example 397] ; pIC50 = < 4.30

Kindly note the recorded pIC50 for Cc1c(-c2[nH]c3sc(N4CCN(CC(=O)N(C)C)C[C@H]4C)nc3c2C(C)C)cn2ncnc2c1C [Example 312] , which is < 4.30

response.value for CNC(=O)CN1CCN(c2nc3c(C(C)C)c(-c4cn5ncnc5c(C)c4C)[nH]c3s2)[C@@H](C)C1 [Example 342] (field: pIC50) = < 4.30

The recorded pIC50 for Cc1cc(-c2[nH]c3sc(C(=O)NCC4(S(C)(=O)=O)CC4)nc3c2C(C)C)cn2ncnc12 [Example 399] is < 4.30

The compound Cc1c(-c2[nH]c3sc(CN4CC5(COC5)C4)nc3c2C(C)C)cn2ncnc2c1C [Example 408] showed pIC50 equal to < 4.30

* * *

Target Desc: human TLR7 (Homo sapiens, UniProt Q9NYK1)
Sequence (Q9NYK1 27-1049): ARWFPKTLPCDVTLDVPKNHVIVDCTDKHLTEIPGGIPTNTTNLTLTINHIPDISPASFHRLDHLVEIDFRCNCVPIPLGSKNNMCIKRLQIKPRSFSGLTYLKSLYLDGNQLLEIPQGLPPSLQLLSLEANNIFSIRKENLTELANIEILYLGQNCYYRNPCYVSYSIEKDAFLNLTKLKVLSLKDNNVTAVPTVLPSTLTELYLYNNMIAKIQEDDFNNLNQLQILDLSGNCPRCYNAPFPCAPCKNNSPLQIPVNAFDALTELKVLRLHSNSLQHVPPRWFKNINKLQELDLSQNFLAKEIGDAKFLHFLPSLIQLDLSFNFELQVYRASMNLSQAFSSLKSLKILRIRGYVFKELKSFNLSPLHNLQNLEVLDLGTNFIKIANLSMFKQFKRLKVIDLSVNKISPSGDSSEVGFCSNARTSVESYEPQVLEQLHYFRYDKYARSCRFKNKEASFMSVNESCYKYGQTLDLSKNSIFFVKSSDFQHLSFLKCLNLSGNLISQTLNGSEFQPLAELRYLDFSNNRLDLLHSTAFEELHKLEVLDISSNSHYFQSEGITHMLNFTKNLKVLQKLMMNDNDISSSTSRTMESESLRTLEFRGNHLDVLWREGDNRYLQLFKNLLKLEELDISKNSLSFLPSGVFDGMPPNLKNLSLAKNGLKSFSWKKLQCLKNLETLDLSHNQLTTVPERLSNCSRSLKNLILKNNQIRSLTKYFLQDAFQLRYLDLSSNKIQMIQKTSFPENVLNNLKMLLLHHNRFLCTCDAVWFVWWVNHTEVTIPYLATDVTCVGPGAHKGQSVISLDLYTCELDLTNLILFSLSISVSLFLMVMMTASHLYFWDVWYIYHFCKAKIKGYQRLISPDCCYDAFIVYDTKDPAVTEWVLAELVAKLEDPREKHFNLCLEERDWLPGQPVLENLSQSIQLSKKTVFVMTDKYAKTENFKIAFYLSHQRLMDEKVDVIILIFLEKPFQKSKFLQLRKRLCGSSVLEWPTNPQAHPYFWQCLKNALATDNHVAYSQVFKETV
Run Description: TLR7 inhibition reporter assay (HEK-Blue SEAP, gardiquimod stimulation)
Experimental Parameters: HEK-Blue cells overexpressing human TLR7, gardiquimod 7.5 μM
Counter-ions that a name gives are not always drawn.
Known IC50 of a selection of compounds
Numbers only; they are read as nM.

In [3]: df
Out[3]:
                                   compound  experimental_value
0  Cc1c(-c2[nH]c3sc(C4CCC(NCC(=O)N5CCOCC5)CC4)nc3c2C(C)C)cn2ncnc2c1C (single isomer, unassigned) [Example 206]                2.27
1  Cc1c(-c2[nH]c3sc(C4CCC(NCC(=O)N5CCOCC5)CC4)nc3c2C(C)C)cn2ncnc2c1C (single isomer, unassigned) [Example 207]                2.92

Next, consider the following compound.
IC50 measured on Cc1c(-c2[nH]c3sc(N4CCNC[C@H]4C)nc3c2C(C)C)cn2ncnc2c1C [Example 308, HCl] = 0.18

* * *

In this section, each of the compounds is paired with its reported IC50.
Target Desc: human TLR8 (Homo sapiens, UniProt Q9NR97)
Run Description: TLR8 inhibition reporter assay (HEK-Blue SEAP, R848 stimulation)
Experimental Parameters: HEK-Blue cells overexpressing human TLR8, R848 15.9 μM

>>> df
                                   compound  quantity_name  experimental_value
0  Cc1c(-c2[nH]c3sc(C4CCC(NCC(=O)N5CCOCC5)CC4)nc3c2C(C)C)cn2ncnc2c1C (single isomer, unassigned) [Example 207]           IC50             0.31 nM
1  COCCN1CCN(c2nc3c(C(C)C)c(-c4cc(C)c5ncnn5c4)[nH]c3s2)[C@H](C)C1           IC50           > 3130 nM

human TLR8 (Homo sapiens, UniProt Q9NR97) IC50 of Cc1cc(-c2[nH]c3sc(N4CCNC[C@H]4C)nc3c2C(C)C)cn2ncnc12 is > 3130 nM

Entry Cc1c(-c2[nH]c3sc(C4CCC(NCC(=O)N5CCOCC5)CC4)nc3c2C(C)C)cn2ncnc2c1C (single isomer, unassigned) [Example 206] : IC50 on human TLR8 (Homo sapiens, UniProt Q9NR97) = 0.64 nM

The recorded IC50 with human TLR8 (Homo sapiens, UniProt Q9NR97) for Cc1cc(-c2[nH]c3sc(N4CCN(C5CCC5)C[C@H]4C)nc3c2C(C)C)cn2ncnc12 was > 3130 nM

* * *

Quick reference for pIC50 among some molecules
Target Desc: human TLR8 (Homo sapiens)
Sequence (Q9NR97 27-1041): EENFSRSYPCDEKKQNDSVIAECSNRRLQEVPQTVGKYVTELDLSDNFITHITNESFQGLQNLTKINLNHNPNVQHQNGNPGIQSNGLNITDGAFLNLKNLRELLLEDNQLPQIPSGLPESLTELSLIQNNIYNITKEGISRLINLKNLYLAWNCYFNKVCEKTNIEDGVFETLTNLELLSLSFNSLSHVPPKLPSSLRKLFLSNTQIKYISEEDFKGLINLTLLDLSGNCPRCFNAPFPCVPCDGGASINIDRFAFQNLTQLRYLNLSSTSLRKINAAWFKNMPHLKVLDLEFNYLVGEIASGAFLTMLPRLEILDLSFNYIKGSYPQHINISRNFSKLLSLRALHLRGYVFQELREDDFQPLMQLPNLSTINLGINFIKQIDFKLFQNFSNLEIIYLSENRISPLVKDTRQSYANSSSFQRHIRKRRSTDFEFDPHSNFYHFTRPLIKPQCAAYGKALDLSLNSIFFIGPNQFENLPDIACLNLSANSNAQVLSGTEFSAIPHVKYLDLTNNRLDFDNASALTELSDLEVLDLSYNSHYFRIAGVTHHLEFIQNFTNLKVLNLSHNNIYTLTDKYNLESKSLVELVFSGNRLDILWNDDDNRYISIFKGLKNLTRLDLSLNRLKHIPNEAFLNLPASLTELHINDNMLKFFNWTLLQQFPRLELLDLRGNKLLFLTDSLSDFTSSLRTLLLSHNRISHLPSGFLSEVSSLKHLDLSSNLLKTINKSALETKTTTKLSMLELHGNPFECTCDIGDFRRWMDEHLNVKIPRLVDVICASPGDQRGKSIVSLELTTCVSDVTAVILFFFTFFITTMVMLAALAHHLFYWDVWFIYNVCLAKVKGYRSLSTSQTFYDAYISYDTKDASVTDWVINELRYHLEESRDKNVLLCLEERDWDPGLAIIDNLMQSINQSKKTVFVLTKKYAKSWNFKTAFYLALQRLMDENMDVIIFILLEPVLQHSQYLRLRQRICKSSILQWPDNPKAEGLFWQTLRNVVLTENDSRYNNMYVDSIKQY
Run Description: TLR8 inhibition reporter assay (HEK-Blue SEAP, R848 stimulation)
Experimental Parameters: HEK-Blue cells overexpressing human TLR8, R848 15.9 μM
pIC50: −log10 of the molar value. Where a name gives a salt, the structure may show the parent alone.

Example entries begin here.
>>> df
                                   molecule                target_desc  quantity_name  experimental_value
0  Cc1cc(-c2[nH]c3sc(N4CCN(CC(C)C)C[C@H]4C)nc3c2C(C)C)cn2ncnc12 [Example 361]  human TLR8 (Homo sapiens)          pIC50              < 5.51
1  Cc1cc(-c2[nH]c3sc(N4CCN(CC(C)(C)O)C[C@H]4C)nc3c2C(C)C)cn2ncnc12 [Example 359]  human TLR8 (Homo sapiens)          pIC50              < 5.51
2  COc1cc(-c2c(C(C)C)c3nc(C4CCN(CC(F)(F)F)CC4)sc3n2CC(F)(F)F)cn2ncnc12 [Example 9]  human TLR8 (Homo sapiens)          pIC50              < 5.51

According to the records, this molecule Cc1c(-c2[nH]c3sc(N4CCNC[C@H]4C)nc3c2C(C)C)cn2ncnc2c1C [Example 308, HCl] displays pIC50 of 10.05
